Test system: HT29 colon
assay.details: NCI-60 one-dose screen, 48 h
experimental.setup: 10 µM
The panel holds about 83,000 compounds, 20% with a hit somewhere; the sample as a whole holds those more often. Activity calls are given as the source filed them. How the source made its calls: active means growth percent below 10; inactive means the rest.
Could you please pick one outcome from this set? active, inactive

query: Which outcome was assigned to CCN(CC)Cc1cc(Nc2ccnc3cc(Cl)ccc23)ccc1OC in this test?
result: inactive

query: Could you do the same for COc1ccc(OC)c(/C=C/c2nnc(Nc3ccc(Cl)cc3)o2)c1 , please?
result: inactive

query: Could you do the same for Cc1cc(=O)[nH]c(N/N=C/c2ccccc2O)n1 , please?
result: inactive

query: Could you do the same for CC1(C)Cc2c(sc3ncn4nc(-c5ccc(O)cc5)nc4c23)CO1 , please?
result: inactive

query: Could you do the same for CCN(CC)CCNC(=O)c1ccc(NC(C)=O)cc1 , please?
result: inactive

Next:
query: Which outcome was assigned to CCN(CCCCCCCCCCN1CC(=O)N(CCCCCCCCCCN(CC)Cc2ccccc2OC)CC1=O)Cc1ccccc1OC in this test?
result: active

query: Could you do the same for O=[P@@]1(c2ccccc2)O[C@H](COCc2ccccc2)[C@@H](OCc2ccccc2)[C@H](OCc2ccccc2)[C@H]1O , please?
result: inactive

query: Could you do the same for COc1ccc2c(c1)N(CCO)C1=C(C(=O)OC1)C2c1cc(OC)c(OC)c(OC)c1 (stereo not given) , please?
result: active

query: Could you do the same for O=S(=O)(NCCCNc1nccc(-c2c(-c3ccc(F)cc3)nc3sccn23)n1)c1ccc2ccccc2c1 , please?
result: active

query: Could you do the same for COc1ccc(-c2nc(-c3nc4cc(Cl)c(F)cc4[nH]3)c3ccccn23)cc1 , please?
result: inactive

###

Tested on: SF-295 CNS
assay.details: NCI-60 one-dose screen, 48 h (100 = growth as untreated, 0 = no growth, -100 = all killed)
experimental.setup: 10 µM
About 83,000 compounds went through this panel and 20% of them were active in at least one assay; those are over-represented in the sample as a whole. Active and inactive are the calls of the source. The calls were made as follows: active = growth percent below 10; inactive = the rest.
measured.property: growth

Some solved cases for reference:
query: Entry COc1ccc(-c2cc(-c3ccc(N(C)C)cc3)c(C#N)c(N3CCCC3)n2)cc1 : reported growth = ?
result: 93.8% (inactive)

query: Could you do the same for CC/C(=C(/c1ccc(OCCN(C)C)cc1)c1ccc(OC(=O)CCC(=O)c2c(C)[nH]c(/C=C3\N=C(c4ccc[nH]4)C=C3OC)c2C)cc1)c1ccccc1 , please?
result: 33.5% (inactive)

query: Could you do the same for Nc1c(C(=O)Nc2cccc(Br)c2)sc2nc3c(cc12)C(O)CCC3 (configuration not stated) , please?
result: 33.9% (inactive)

Go through the list and state growth for each entry.
1. COc1ccc(-c2ccc3cc(C(=O)Nc4ccc(O)c(C(=O)/C=C/c5cc(OC)c(OC)c(OC)c5)c4)ccc3c2)cc1
2. COc1ccc(-c2nc3ncccn3c2-c2nnc(-c3ccc(F)cc3)o2)cc1
3. COc1cc2nc(Nc3cccc(NC(C)=O)c3)nc(N)c2cc1OC
4. N#CCCN1C/C(=C/c2ccccc2)C(=O)/C(=C/c2ccccc2)C1

result:
["101% (inactive)", "97.1% (inactive)", "131% (inactive)", "26.3% (inactive)"]

Go through the list and state growth for each entry.
1. N#CC1=C(Nc2ccccc2Cl)SC(c2ccccc2O)NC1=O (configuration not stated)
2. COc1cc(-c2nn3c(/C=C4/C(=O)Nc5ccccc54)c(-c4ccc(C)cc4)nc3s2)cc(OC)c1OC
3. Cn1c([N+](=O)[O-])cnc1/C=C1\Oc2cc(Cl)ccc2C1=O
4. COc1cc(-c2cc(/C=C/C(=O)c3ccc(F)c(F)c3)[nH]n2)cc(OC)c1OC
5. C(CCCC1=NCCO1)CCCC1=NCCO1

result:
113% (inactive)
74.1% (inactive)
38.5% (inactive)
10.4% (inactive)
101% (inactive)

Go through the list and state growth for each entry.
1. COc1ccc(OC)c(/C=C/c2nnc(Nc3ccc(Cl)cc3)o2)c1
2. O=C(Nc1ccc(Cl)cc1)N1NC(c2ccc(Cl)cc2)C=C1c1ccccc1 (configuration not stated)
3. N#CSCC1CC(O)(c2ccccc2)CC(c2ccc(Cl)cc2)O1 (configuration not stated)

result:
["46.9% (inactive)", "105% (inactive)", "46.6% (inactive)"]

Go through the list and state growth for each entry.
1. COc1cc(-c2nc(-c3nnc(-c4ccc(F)c(Cl)c4)o3)c3ccccn23)cc(OC)c1OC
2. CC(=O)c1cc(Cl)ccc1O
3. CCOCC(=O)C(C#N)c1ccc(Cl)c(Cl)c1 (configuration not stated)

result:
37.3% (inactive)
94.1% (inactive)
89.3% (inactive)
